pIC50: −log10 of the molar value.
Glycogen synthase kinase-3 beta (Homo sapiens) pIC50 data
Sequence (P49841 whole entry): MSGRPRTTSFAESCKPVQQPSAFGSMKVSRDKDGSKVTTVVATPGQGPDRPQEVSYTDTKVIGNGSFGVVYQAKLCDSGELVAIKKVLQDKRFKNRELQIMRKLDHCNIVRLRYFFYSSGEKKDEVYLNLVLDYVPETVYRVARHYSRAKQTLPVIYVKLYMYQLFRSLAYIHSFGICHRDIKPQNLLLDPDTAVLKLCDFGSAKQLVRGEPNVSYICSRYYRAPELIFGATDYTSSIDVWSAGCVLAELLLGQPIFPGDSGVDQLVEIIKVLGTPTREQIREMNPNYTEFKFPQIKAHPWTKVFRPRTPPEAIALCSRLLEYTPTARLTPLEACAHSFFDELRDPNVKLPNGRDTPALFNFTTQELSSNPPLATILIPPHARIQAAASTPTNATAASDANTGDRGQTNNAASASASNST
Readout kind: pIC50

>>> val("CN1C[C@@]2(C3=C(CC(C)(C)CC3=O)NC3N=NC(C4CC(F)(F)C4)=C32)c2ccccc21 (stereo partly specified)")
"6.00 to 7.00"
>>> val("Cc1ccc(C)c(S(=O)(=O)N2CCC3(CC2)C2=C(N=NC2)NC2=C3C(=O)CC(C)(C)C2)c1")
"6.00 to 7.00"
>>> val("CC[C@@]1(c2cccc(-c3ccnc4c3cnn4C)c2)C2=CN=NC2NC2=C1C(=O)NC(C)(C)C2 (stereo partly specified)")
"6.00 to 7.00"
>>> val("CCC1(c2cccc(N(C)C(=O)CCc3ccccc3)c2)C2=CN=NC2NC2=C1C(=O)CC(C)(C)C2 (stereo unspecified)")
"6.00 to 7.00"
>>> val("CC1(C)CC(=O)C2=C(C1)NC1=C(CN=N1)C21CCCNCC1 (stereo unspecified)")
"< 5.30"
>>> val("CC[C@@]1(c2cccc(-c3c(C)nn(C)c3C)c2)C2=C(CC(C)(C)NC2=O)NC2N=NC(C(F)(F)F)=C21 (stereo partly specified)")
"> 7.00"
>>> val("CCC1(c2cccc(-c3cnn(C)n3)c2)C2=CN=NC2NC2=C1C(=O)CC(C)(C)C2 (stereo unspecified)")
"5.30 to 6.00"
>>> val("CC1(C)CC(=O)C2=C(C1)NC1N=NC(C3CC(F)(F)C3)=C1[C@@]21COc2ccccc21 (stereo partly specified)")
"6.00 to 7.00"
>>> val("CC[C@]1(c2cccc(C(F)(F)F)c2)C2=CN=NC2NC2=C1C(=O)N(C)CC2 (stereo partly specified)")
"6.00 to 7.00"
>>> val("CCC1(c2cccc(-c3cn(C)nc3C)c2)C2=C(CC(C)(C)CC2=O)NC2N=NC(C)=C21 (stereo unspecified)")
"> 7.00"
>>> val("CCn1ccc(S(=O)(=O)N2CCC3(CC2)C2=CN=NC2NC2=C3C(=O)NC(C)(C)C2)n1 (stereo unspecified)")
"6.00 to 7.00"
>>> val("CC[C@H]1C[C@@]2(CCO1)C1=C(N=NC1)NC1=C2C(=O)CC(C)(C)C1")
"5.30 to 6.00"
>>> val("CC[C@@]1(c2cccc(-c3ccnc(C(F)F)c3)c2)C2=CN=NC2NC2=C1C(=O)NC(C)(C)C2 (stereo partly specified)")
"6.00 to 7.00"
>>> val("CC[C@@]1(c2cccc(-c3ccncc3Cl)c2)C2=CN=NC2NC2=C1C(=O)NC(C)(C)C2 (stereo partly specified)")
"6.00 to 7.00"
>>> val("CCn1nc(C)c(S(=O)(=O)N2CCC3(CC2)C2=C(N=NC2)NC2=C3C(=O)CC(C)(C)C2)c1C")
"5.30 to 6.00"
>>> val("CC1(C)CC(=O)C2=C(C1)NC1=C(CN=N1)C21CCC(C(=O)N2CCCC2)CC1 (stereo unspecified)")
"6.00 to 7.00"
>>> val("CC[C@@]1(c2cccc(N3CCOCC3)c2)C2=C(CC(C)(C)CC2=O)NC2N=NC(C)=C21 (stereo partly specified)")
"5.30 to 6.00"
>>> val("CC1(C)CC(=O)C2=C(C1)NC1=C(CN=N1)C21CCC2(CCC(=O)N2C(=O)OC(C)(C)C)CC1 (stereo unspecified)")
"< 5.30"
>>> val("CC[C@@]1(c2cccc(-c3cnn(C)c3)c2)C2=C(CC(C)(C)NC2=O)NC2N=NC(F)=C21 (stereo partly specified)")
"6.00 to 7.00"
>>> val("CC1(C)CC(=O)C2=C(C1)NC1=C(CN=N1)[C@]21COC2(CN(C(=O)C3(F)CCC3)C2)C1")
"> 7.00"
>>> val("CC1(C)CC(=O)C2=C(C1)NC1N=NC(C(F)(F)F)=C1[C@]21CCc2c(F)cccc21 (stereo partly specified)")
"> 7.00"
>>> val("CC1CCC(C(=O)N2CC3(C2)CC2(CO3)C3=C(N=NC3)NC3=C2C(=O)CC(C)(C)C3)C1 (stereo unspecified)")
"> 7.00"
>>> val("CC[C@]1(c2cccc(-c3ccncc3C)c2)C2=CN=NC2NC2=C1C(=O)NC(C)(C)C2 (stereo partly specified)")
"5.30 to 6.00"
>>> val("CC[C@]1(c2cccc(-c3cncn3C)c2)C2=CN=NC2NC2=C1C(=O)CC(C)(C)C2 (stereo partly specified)")
"5.30 to 6.00"
>>> val("CCC1(c2cccc(C(F)(F)F)c2)C2=CN=NC2NC2=C1C(=O)N(c1cccc(C)c1)CC2 (stereo unspecified)")
"6.00 to 7.00"
>>> val("CC[C@@]1(c2ccccc2)C2=CN=NC2NC2=C1C(=O)C[C@]1(CCOC1)C2 (stereo partly specified)")
"5.30 to 6.00"
